Entries annotated with measured log10 IC50
assayed-target: S. aureus 133 translation
run-description: S. aureus in vitro transcription-translation assay (firefly luciferase, S30 extract)
measurement-parameters: 50% inhibition of the translation of firefly luciferase
Structures can show the parent of a compound that is named as a salt.
The figures below represent log10 of IC50, where IC50 is stated in nM.

Record NCCC[C@@H]1NC(=O)[C@@H](N)Cc2cc(ccc2O)-c2ccc(O)c(c2)C[C@@H](C(=O)N[C@@H](C[C@@H](O)CN)C(=O)NCCN)NC1=O . Reported log10 IC50: 2.00

// below: log10 IC50 requested for another compound
Record NC[C@H](O)C[C@@H]1NC(=O)[C@@H](N)Cc2cc(ccc2O)-c2ccc(O)c(c2)C[C@@H](C(=O)O)NC1=O [Example 20A, dihydrochloride, reference compound] . Reported log10 IC50: 3.18

###

assayed-target: S. aureus 133 translation
run-description: S. aureus in vitro transcription-translation assay (firefly luciferase, S30 extract)
measurement-parameters: 50% inhibition of the translation of firefly luciferase
Entries annotated with measured pIC50
A value of pIC50 is the negative decimal logarithm of a concentration given in moles per litre.

Here's what some known entries look like.
Record NCCC[C@@H]1NC(=O)[C@@H](N)Cc2cc(ccc2O)-c2ccc(O)c(c2)C[C@@H](C(=O)N[C@H](CO)CNC(=O)[C@@H](N)CCCN)NC1=O [Example 23] . Reported pIC50: 6.49

Record NCCC[C@H](NC(=O)[C@@H]1Cc2cc(ccc2O)-c2ccc(O)c(c2)C[C@H](N)C(=O)N[C@@H](CCCN)C(=O)N1)C(=O)NCCC[C@H](N)CC(=O)NCCN [Example 10] . Reported pIC50: 7.15

Record NCCC[C@H](NC(=O)[C@@H]1Cc2cc(ccc2O)-c2ccc(O)c(c2)C[C@H](N)C(=O)N[C@@H](CCCN)C(=O)N1)C(=O)N[C@@H](CCN)C(=O)NCCN [Example 13] . Reported pIC50: 7.22

Record N=C(N)NCCC[C@H](NC(=O)[C@@H]1Cc2cc(ccc2O)-c2ccc(O)c(c2)C[C@H](N)C(=O)N[C@@H](CCCN)C(=O)N1)C(=O)NCCN [Example 14] . Reported pIC50: 7.15

// below: pIC50 requested for another compound
Record NCCC[C@H](N)CNC(=O)[C@H](CCCN)NC(=O)[C@@H]1Cc2cc(ccc2O)-c2ccc(O)c(c2)C[C@H](N)C(=O)N[C@@H](CCCN)C(=O)N1 [Example 16] . Reported pIC50: 7.00
